Would you mind telling me the reported pEC50 of each entry?
# ASSAY SYSTEM: human F508del-CFTR (Homo sapiens, UniProt P13569, DEL508-508)
# Sequence (P13569 with tags, fused parts or gaps DEL508-508): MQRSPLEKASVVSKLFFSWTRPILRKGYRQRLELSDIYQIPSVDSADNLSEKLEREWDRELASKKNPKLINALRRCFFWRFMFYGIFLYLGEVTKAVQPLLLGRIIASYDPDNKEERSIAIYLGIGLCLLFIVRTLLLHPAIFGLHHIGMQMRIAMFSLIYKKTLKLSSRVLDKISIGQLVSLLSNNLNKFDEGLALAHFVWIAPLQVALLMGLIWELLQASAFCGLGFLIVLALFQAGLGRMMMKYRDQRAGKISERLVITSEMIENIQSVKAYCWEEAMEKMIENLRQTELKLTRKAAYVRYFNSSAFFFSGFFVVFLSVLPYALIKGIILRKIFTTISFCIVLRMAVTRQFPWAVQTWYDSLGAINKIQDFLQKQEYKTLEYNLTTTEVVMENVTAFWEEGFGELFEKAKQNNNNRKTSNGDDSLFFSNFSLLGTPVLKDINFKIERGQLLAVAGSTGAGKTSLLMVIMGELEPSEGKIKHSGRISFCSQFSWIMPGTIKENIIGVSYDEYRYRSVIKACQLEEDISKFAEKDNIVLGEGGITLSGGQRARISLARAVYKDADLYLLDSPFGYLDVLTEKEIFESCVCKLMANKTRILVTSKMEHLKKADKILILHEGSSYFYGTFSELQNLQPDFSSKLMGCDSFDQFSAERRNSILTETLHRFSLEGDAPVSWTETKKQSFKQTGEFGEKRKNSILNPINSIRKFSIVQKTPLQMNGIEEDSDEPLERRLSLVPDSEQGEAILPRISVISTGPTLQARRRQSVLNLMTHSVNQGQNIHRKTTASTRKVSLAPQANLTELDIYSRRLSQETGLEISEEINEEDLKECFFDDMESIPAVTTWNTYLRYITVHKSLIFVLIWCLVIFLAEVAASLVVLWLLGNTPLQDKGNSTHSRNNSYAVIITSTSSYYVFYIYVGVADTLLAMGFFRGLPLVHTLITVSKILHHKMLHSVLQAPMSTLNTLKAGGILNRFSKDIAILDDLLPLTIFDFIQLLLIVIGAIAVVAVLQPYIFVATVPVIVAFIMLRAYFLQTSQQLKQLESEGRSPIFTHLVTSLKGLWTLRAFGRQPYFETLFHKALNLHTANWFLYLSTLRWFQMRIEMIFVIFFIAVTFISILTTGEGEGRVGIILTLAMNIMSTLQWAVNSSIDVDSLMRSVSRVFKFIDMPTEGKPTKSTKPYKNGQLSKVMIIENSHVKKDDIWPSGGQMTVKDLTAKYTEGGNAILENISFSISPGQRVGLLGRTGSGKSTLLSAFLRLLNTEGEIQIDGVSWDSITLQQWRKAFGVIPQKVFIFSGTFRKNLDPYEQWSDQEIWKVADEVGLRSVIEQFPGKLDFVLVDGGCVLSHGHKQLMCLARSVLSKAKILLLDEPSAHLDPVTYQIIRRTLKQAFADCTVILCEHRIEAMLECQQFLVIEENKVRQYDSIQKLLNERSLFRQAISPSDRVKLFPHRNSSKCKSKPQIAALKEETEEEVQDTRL
# EXPERIMENT: F508del-CFTR cell surface expression (corrector activity), DiscoveRx ß-galactosidase complementation chemiluminescence assay in recombinant U2OS cell line;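 further: U2OS cells co-expressing ProLink-tagged F508del-CFTR and a membrane-anchored enzyme acceptor, where more surface CFTR restores β-galactosidase activity measured by chemiluminescence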
# STUDY CONDITIONS: EC50, F508del-CFTR cell surface expression, U2OS cell line, 16h compound incubation; geomean values
One number for each entry, as −log10 of the molar value.

Some entries whose results are on file:
COMPOUND | ENDPOINT RESULT
Cc1csc(CCNC(=O)[C@@H]2CC(=O)N(C)[C@@H](CC(C)C)C(=O)N3CCCC[C@@H]3C(=O)N[C@H](Cc3ccccc3)COc3ccc4ncn(C)c4c3C(=O)N2)n1 (mixture of isomers) | 6.00
COc1cccc(CCNC(=O)[C@@H]2CC(=O)N(C)[C@@H](CC3CCC3)C(=O)N(CCC3CCCCC3)CC(=O)N[C@H](Cc3ccccc3)COc3ccc4ccccc4c3C(=O)N2)c1 (racemic) | 6.97
CN1C(=O)C[C@@H](C(=O)NCCc2ccc3c(c2)OCO3)NC(=O)c2c(ccc3ccccc23)OC[C@@H](Cc2ccccc2)NC(=O)CN(C[C@H]2CCCCO2)C(=O)[C@@H]1CC1CCC1 | 6.53
CN1C(=O)C[C@@H](C(=O)NCCc2ccc3c(c2)OCO3)NC(=O)c2c(ccc3ccccc23)OC[C@@H](Cc2ccccc2)NC(=O)CN(C[C@@H]2CCCCO2)C(=O)[C@@H]1CC1CCCCC1 (mixture of isomers) | 6.62
COc1cccc(CCNC(=O)[C@@H]2CC(=O)N(C)[C@@H](CC(C)C)C(=O)N3CCN(C4CCC4)C[C@@H]3C(=O)N[C@H](Cc3ccccc3)COc3cnc4ccccc4c3C(=O)N2)c1 | 7.15
COc1cccc(CCNC(=O)[C@@H]2CC(=O)N(C)[C@@H](CC(C)C)C(=O)N(C)CC(=O)N[C@H](Cc3ccccc3)COc3ccc(Cl)cc3C(=O)N2)c1 | 6.52
COCCCCCNC(=O)[C@@H]1CC(=O)N(C)[C@@H](CC(C)C)C(=O)N(CCC2CCCCC2)CC(=O)N[C@H](Cc2ccccc2)COc2cccc(OC)c2C(=O)N1 | 6.38
COc1cccc(CCNC(=O)[C@@H]2CC(=O)N(C)[C@@H](CC(C)C)C(=O)N3CCN(C4CCC4)C[C@H]3C(=O)N[C@H](Cc3ccccc3)COc3cnc4ccccc4c3C(=O)N2)c1 | 6.57

Hey, quick one: what's pEC50 for each of these?
1. CC(C)C[C@H]1C(=O)N(C)C2(CC2)C(=O)N[C@H](Cc2ccccc2)COc2cnc3ccc(F)cc3c2C(=O)N[C@H](C(=O)NCCc2cccc(C(F)(F)F)c2)CC(=O)N1C
2. COc1cccc(CCNC(=O)[C@@H]2CC(=O)N(C)[C@@H](CC(C)C)C(=O)N3CCN(C(C)C)C[C@@H]3C(=O)N[C@H](Cc3ccccc3)COc3ccc4ncn(C)c4c3C(=O)N2)c1

[6.48, 6.29]
